- ASSAYED TARGET: OX2R (Homo sapiens, UniProt O43614)
- Construct: expressed in transfected cells; host or cells: CHO (Chinese hamster ovary) cells constitutively expressing the OX2R gene and NFAT-luciferase (CHOOX2R)
- Sequence (O43614 1-444): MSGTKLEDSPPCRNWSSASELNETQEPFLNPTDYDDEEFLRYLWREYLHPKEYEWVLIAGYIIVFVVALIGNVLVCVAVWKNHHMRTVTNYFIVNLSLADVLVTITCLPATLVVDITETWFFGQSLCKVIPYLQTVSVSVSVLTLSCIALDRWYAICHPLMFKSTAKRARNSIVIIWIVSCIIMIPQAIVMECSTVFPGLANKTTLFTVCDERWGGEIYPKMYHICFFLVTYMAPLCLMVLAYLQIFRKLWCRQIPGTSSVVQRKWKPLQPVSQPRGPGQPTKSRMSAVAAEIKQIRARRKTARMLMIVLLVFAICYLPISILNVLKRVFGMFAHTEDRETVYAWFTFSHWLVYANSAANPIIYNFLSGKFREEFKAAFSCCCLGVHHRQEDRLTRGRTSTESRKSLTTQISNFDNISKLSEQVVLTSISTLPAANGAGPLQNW
- MEASUREMENT DESCRIPTION: Evaluation of agonist activity against OX2R (CHOOX2R cells, Fura2AM fluorescence, FDSS3000)
- Assay type: cell-based
- ASSAY CONTEXT: conversion with orexin-A as full agonist (maximum agonist activity 100%)
EXPERIMENTAL ENDPOINT: Emax (%)

Request: Read off the recorded Emax for COc1ccccc1C(=O)NCCNc1cccc(NS(=O)(=O)c2cc(-c3cccc(C(=O)N4CCC4)c3)ccc2OC)c1
Response: 85

Request: Read off the recorded Emax for COc1ccc(-c2cccc(C(=O)N(C)C)c2)cc1S(=O)(=O)Nc1cccc(NCCNC(=O)c2c(F)cccc2F)c1
Response: 100

Request: Read off the recorded Emax for COc1ccc(-c2cccc(C(=O)N(C)C)c2)cc1S(=O)(=O)Nc1cccc(NCCNC(=O)c2ccccc2C)c1
Response: 85

###

- ASSAYED TARGET: OX2R (Homo sapiens, UniProt O43614)
- Construct: expressed in transfected cells; host or cells: CHO (Chinese hamster ovary) cells constitutively expressing the OX2R gene and NFAT-luciferase (CHOOX2R)
- MEASUREMENT DESCRIPTION: Evaluation of agonist activity against OX2R (CHOOX2R cells, Fura2AM fluorescence, FDSS3000)
- Format: cell-based
- ASSAY CONTEXT: conversion with orexin-A as full agonist (maximum agonist activity 100%)
EXPERIMENTAL ENDPOINT: Emax (%)

Examples with answers:
Request: Read off the recorded Emax for COc1cccc(C(=O)NCCNc2cccc(NS(=O)(=O)c3cc(-c4cccc(Cl)c4)ccc3OC)c2)c1
Response: 54

Request: Read off the recorded Emax for COc1ccc(C(=O)NCCNc2cccc(NS(=O)(=O)c3cc(-c4cccc(C(=O)N(C)C)c4)ccc3OC)c2)cc1
Response: 94

Request: Read off the recorded Emax for COc1ccc(-c2cccc(C(=O)N(C)C)c2)cc1S(=O)(=O)Nc1cccc(NCCNC(=O)c2cc(F)cc(F)c2)c1
Response: 94

P. COc1cccc(C(=O)NCCNc2cccc(NS(=O)(=O)c3cc(-c4cccc(C(=O)N(C)C)c4)ccc3OC)c2)c1
Q. COc1ccc(-c2cccc(C(=O)N(C)C)c2)cc1S(=O)(=O)Nc1cccc(NCCNC(=O)c2ccccc2F)c1
Request: Identify the item whose Emax is the smaller number: P or Q State the label of the item chosen.
Response: P

###

- ASSAYED TARGET: OX2R (Homo sapiens, UniProt O43614)
- Construct: expressed in transfected cells; host or cells: CHO (Chinese hamster ovary) cells constitutively expressing the OX2R gene and NFAT-luciferase (CHOOX2R)
- MEASUREMENT DESCRIPTION: Evaluation of agonist activity against OX2R (CHOOX2R cells, Fura2AM fluorescence, FDSS3000)
- Type: cell-based
- ASSAY CONTEXT: test compound 10 μM; relative to orexin-A as full agonist (100%); CHOOX2R cells
- Procedure: Evaluation of Agonist Activity Against OX2R NFAT-luciferase gene and OX2R gene were each constitutively expressed in CHO cell, which is a cell line derived from Chinese hamster ovary to establish a cell line (CHOOX2R). […] After washing, HEPES buffer (75 μL) was added, a test compound solution (25 μL) was added, and changes in the fluorescence intensity were measured by FDSS3000 (Hamamatsu Photonics K.K.). […]
EXPERIMENTAL ENDPOINT: Response (10 μM (%))

Examples with answers:
Request: Read off the recorded Response (10 μM (%)) for COc1ccc(-c2ccccc2F)cc1S(=O)(=O)Nc1cccc(NCCNC(=O)c2cccnc2)c1 [Example 15]
Response: 6

Request: Read off the recorded Response (10 μM (%)) for COc1ccc(-c2ccccc2F)cc1S(=O)(=O)Nc1cccc(NCCNC(=O)c2ccccc2O)c1 [Example 6]
Response: 7

Request: Read off the recorded Response (10 μM (%)) for COc1ccccc1C(=O)NCCNc1cccc(NS(=O)(=O)c2cc(-c3cccc(C(=O)N(C)C)c3)ccc2C)c1 [Example 106]
Response: 39

Request: Read off the recorded Response (10 μM (%)) for COc1cccc(C(=O)NCCNc2cccc(NS(=O)(=O)c3cc(-c4ccccc4OC)ccc3OC)c2)c1 [Example 13]
Response: 99

1. COc1ccc(-c2ccccc2F)cc1S(=O)(=O)Nc1cccc(NCCNC(=O)c2ccccc2Cl)c1 [Example 7]
2. COc1cccc(C(=O)NCCNc2cccc(NS(=O)(=O)c3cc(-c4ccccc4Cl)ccc3OC)c2)c1 [Example 11]
Request: Identify the item whose Response (10 μM (%)) is the smaller number: 1 or 2 State the label of the item chosen.
Response: 2
(2: 23%, 1: 145%)

A. COc1cccc(C(=O)NCCNc2cccc(NS(=O)(=O)c3cc(-c4cccc(OC)c4)ccc3OC)c2)c1 [Example 31]
B. COc1cccc(C(=O)NCCNc2cccc(NS(=O)(=O)c3cc(-c4c(F)cccc4F)ccc3OC)c2)c1 [Example 18]
Request: Given A and B , report the one with the higher recorded Response (10 μM (%)). State the label of the item chosen.
Response: B

A. COc1cccc(C(=O)NCCNc2cccc(NS(=O)(=O)c3cc(-c4cccc(Cl)c4)ccc3OC)c2)c1 [Example 29]
B. COc1ccc(Br)cc1C(=O)NCCNc1cccc(NS(=O)(=O)c2cc(-c3ccccc3F)ccc2OC)c1 [Example 4]
Request: Identify the item whose Response (10 μM (%)) is the smaller number: A or B State the label of the item chosen.
Response: B

a. COc1ccccc1C(=O)NCCNc1cccc(NS(=O)(=O)c2cc(-c3cccc(F)c3)ccc2OC)c1 [Example 109]
b. COc1ccccc1C(=O)NCCNc1cccc(NS(=O)(=O)c2cc(-c3cc(F)ccc3F)ccc2OC)c1 [Example 19]
Request: Identify the item whose Response (10 μM (%)) is the smaller number: a or b State the label of the item chosen.
Response: a
(a: 47%, b: 143%)

###

- ASSAYED TARGET: OX2R (Homo sapiens)
- Construct: expressed in transfected cells; host or cells: CHO (Chinese hamster ovary) cells constitutively expressing the OX2R gene and NFAT-luciferase (CHOOX2R)
- MEASUREMENT DESCRIPTION: Evaluation of agonist activity against OX2R (CHOOX2R cells, Fura2AM fluorescence, FDSS3000)
- Type: cell-based
- ASSAY CONTEXT: test compound 1.0 μM; CHOOX2R cells; relative to orexin-A as full agonist (100%)
EXPERIMENTAL ENDPOINT: Response (1.0 μM (%))

Examples with answers:
Request: Read off the recorded Response (1.0 μM (%)) for COc1cccc(C(=O)NCCNc2cccc(NS(=O)(=O)c3cc(-c4ncccc4F)ccc3OC)c2)c1 [Example 93]
Response: 33

Request: Read off the recorded Response (1.0 μM (%)) for COc1ccc(-c2cccc(C(=O)N3CCCC3)c2)cc1S(=O)(=O)Nc1cccc(NCCNC(=O)c2c(F)cccc2F)c1 [Example 88]
Response: 100

Request: Read off the recorded Response (1.0 μM (%)) for COc1ccc(-c2cccc(C(=O)N3CCCCC3)c2)cc1S(=O)(=O)Nc1cccc(NCCNC(=O)c2cccc(F)c2)c1 [Example 92]
Response: 92

Request: Read off the recorded Response (1.0 μM (%)) for COc1ccc(-c2cccc(C(=O)N(C)C)c2)cc1S(=O)(=O)Nc1cccc(NCCNC(=O)c2ccccc2F)c1 [Example 43]
Response: 55

I. COc1ccc(-c2cccc(C(=O)N3CCCC3)c2)cc1S(=O)(=O)Nc1cccc(NCCNC(=O)c2ccccc2Cl)c1 [Example 87]
II. COc1ccccc1C(=O)NCCNc1cccc(NS(=O)(=O)c2cc(-c3cccnc3)ccc2OC)c1 [Example 96]
Request: Identify the item whose Response (1.0 μM (%)) is the smaller number: I or II State the label of the item chosen.
Response: II
(II: 61%, I: 90%)

a. COc1ccc(-c2cccc(C(=O)N3CCC3)c2)cc1S(=O)(=O)Nc1cccc(NCCNC(=O)c2c(OC)cccc2OC)c1 [Example 85]
b. COc1ccc(-c2cccc(C(=O)N(C)C)c2)cc1S(=O)(=O)Nc1cccc(NCCNC(=O)c2cnccc2Cl)c1 [Example 57]
c. COc1ccc(-c2cccc(C(=O)N(C)C)c2)cc1S(=O)(=O)Nc1cccc(NCCNC(=O)c2cc(F)cc(F)c2)c1 [Example 54]
Request: Put the entries in order of Response (1.0 μM (%)), starting with the largest number. As an answer, provide the labels arranged in the order called for.
Response: c, a, b

I. COc1cccc(C(=O)NCCNc2cccc(NS(=O)(=O)c3cc(-c4cccc(C(=O)N(C)C)c4)ccc3OC)c2)c1 [Example 41]
II. COc1cncc(-c2ccc(OC)c(S(=O)(=O)Nc3cccc(NCCNC(=O)c4ccccc4OC)c3)c2)c1 [Example 97]
Request: Given I and II , report the one with the higher recorded Response (1.0 μM (%)). State the label of the item chosen.
Response: I
(I: 107%, II: 12%)
